Hey, just so you know, these numbers are from the NIST ThermoML archive (doi:10.1016/j.jct.2014.12.023).

method notes: activity coefficient (dimensionless); of the first substance listed, at infinite dilution; xn = mol fraction of the nth substance listed
test parameters: 313 K; 87.4 kPa; Liquid; Chromatography; x1 = 0
Provide the recorded activity coefficient for the entries that follow.
Form field (numeric): enter value without unit.

Q: Value lookup for activity coefficient; key = CCCO [propan-1-ol] + O=S(=O)([N-]S(=O)(=O)C(F)(F)F)C(F)(F)F.O=S(=O)([N-]S(=O)(=O)C(F)(F)F)C(F)(F)F.c1ccc2cc(C[N+]3(CCCCCCCCC[N+]4(Cc5ccc6ccccc6c5)CCCC4)CCCC3)ccc2c1
A: 1.33

Q: I am curious: what activity coefficient value has been reported for CO [methanol] + O=S(=O)([N-]S(=O)(=O)C(F)(F)F)C(F)(F)F.O=S(=O)([N-]S(=O)(=O)C(F)(F)F)C(F)(F)F.c1ccc2cc(C[N+]3(CCCCCCCCC[N+]4(Cc5ccc6ccccc6c5)CCCC4)CCCC3)ccc2c1 ?
A: 0.821

Q: Item under review: O=C1CCCCC1 [cyclohexanone] + O=S(=O)([N-]S(=O)(=O)C(F)(F)F)C(F)(F)F.O=S(=O)([N-]S(=O)(=O)C(F)(F)F)C(F)(F)F.c1ccc2cc(C[N+]3(CCCCCCCCC[N+]4(Cc5ccc6ccccc6c5)CCCC4)CCCC3)ccc2c1 . Reported activity coefficient?
A: 0.998

Q: Please look up its activity coefficient: CCCCCCC [heptane] + O=S(=O)([N-]S(=O)(=O)C(F)(F)F)C(F)(F)F.O=S(=O)([N-]S(=O)(=O)C(F)(F)F)C(F)(F)F.c1ccc2cc(C[N+]3(CCCCCCCCC[N+]4(Cc5ccc6ccccc6c5)CCCC4)CCCC3)ccc2c1
A: 6.72

====

I'd appreciate it if you could supply activity coefficient values for the items below.
method notes: activity coefficient (dimensionless); of the first substance listed, at infinite dilution; xn = mol fraction of the nth substance listed
test parameters: 323 K; 87.4 kPa; Liquid; Chromatography; x1 = 0
Simply state the number, no unit and no words.

Q: So what does the record say about activity coefficient for ClC(Cl)(Cl)Cl [tetrachloromethane] + O=S(=O)([N-]S(=O)(=O)C(F)(F)F)C(F)(F)F.O=S(=O)([N-]S(=O)(=O)C(F)(F)F)C(F)(F)F.c1ccc2cc(C[N+]3(CCCCCCCCC[N+]4(Cc5ccc6ccccc6c5)CCCC4)CCCC3)ccc2c1 ?
A: 1.47

Q: I would be grateful if you could share the reported activity coefficient for CCN(CC)CC [triethylamine] + O=S(=O)([N-]S(=O)(=O)C(F)(F)F)C(F)(F)F.O=S(=O)([N-]S(=O)(=O)C(F)(F)F)C(F)(F)F.c1ccc2cc(C[N+]3(CCCCCCCCC[N+]4(Cc5ccc6ccccc6c5)CCCC4)CCCC3)ccc2c1 .
A: 1.22

Q: What value of activity coefficient has been recorded for this entry: CC(=O)O [acetic acid] + O=S(=O)([N-]S(=O)(=O)C(F)(F)F)C(F)(F)F.O=S(=O)([N-]S(=O)(=O)C(F)(F)F)C(F)(F)F.c1ccc2cc(C[N+]3(CCCCCCCCC[N+]4(Cc5ccc6ccccc6c5)CCCC4)CCCC3)ccc2c1
A: 0.767

Q: Please report the recorded activity coefficient for Cc1ccc(C)cc1 [1,4-dimethylbenzene] + O=S(=O)([N-]S(=O)(=O)C(F)(F)F)C(F)(F)F.O=S(=O)([N-]S(=O)(=O)C(F)(F)F)C(F)(F)F.c1ccc2cc(C[N+]3(CCCCCCCCC[N+]4(Cc5ccc6ccccc6c5)CCCC4)CCCC3)ccc2c1 .
A: 0.9
